Biological target: T1, mouse AQP3 on the cell surface (PAM212 cells, mouse macrophage cells, HEK293 cells stably overexpressing … (mouse, UniProt Q8R2N1 1-292))
T1 construct: whole, on cells; Membrane water channel; also called mouse aquaporin 3
T1 sequence (looked up): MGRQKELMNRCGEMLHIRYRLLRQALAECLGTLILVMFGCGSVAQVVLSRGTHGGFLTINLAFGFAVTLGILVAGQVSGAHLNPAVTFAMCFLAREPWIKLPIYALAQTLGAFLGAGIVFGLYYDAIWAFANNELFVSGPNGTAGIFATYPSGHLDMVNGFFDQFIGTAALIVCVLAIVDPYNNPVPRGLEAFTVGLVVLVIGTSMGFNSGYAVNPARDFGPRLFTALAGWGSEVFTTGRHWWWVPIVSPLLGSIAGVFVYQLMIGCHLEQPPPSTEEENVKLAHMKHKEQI
Assay: fluorescence of a labelled secondary antibody on PAM212 cells; antibody at 10 µg/mL

{"BINDER": "antibody G (antibody, mouse IgG2a, kappa, V domains shown, also called anti AQP3 mAb G) VH: QVQLKQSGAELVRPGASVTLSCKASGYTFTDYEMHWVKQTPVHGLEWIGGIDPETGGTAYNQKFKGKAILTADKSSSTAYMELRSLTSEDSAVYYCTRWGAITSFVALRGFAYWGQGTLVTVSS VL: DIQMTQSPSSLSVSAGEKVTMSCKSSQSLLNSGNQKNYLAWYQQKPGQPPKLLIYGASTRESGVPDRFTGSGSGTDFTLTISSVQAEDLAVYYCQNDHSYPPTFGAGTKLELKR", "binding result": "binds"}
